# runDescription: recombinant barcode read abundance after kanamycin selection (control-corrected) (log10(CPM+1)); higher = more efficient recombination; sequences stand for … in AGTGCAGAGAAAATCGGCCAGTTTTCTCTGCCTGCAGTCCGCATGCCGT…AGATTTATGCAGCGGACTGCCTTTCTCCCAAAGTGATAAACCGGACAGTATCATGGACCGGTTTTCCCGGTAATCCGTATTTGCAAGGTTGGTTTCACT; site = the 11-nt target
outcomeMeasure: recombinant barcode read abundance (log10)
Field format: numeric only.

- sequenceInput: "AGCACAACTTGGGTTCTAACCTGTTGCCT (site AGAACAACTAG)"
  assayResult: 0.0799
- sequenceInput: "GTGGAAGCTTGGGTTCTAACCTGTTGCCT (site GGGGAAGCTAG)"
  assayResult: 0.262
- sequenceInput: "CGTCTACCTTGGGTTCTAACCTGTTGCTT (site AGTCTACCTAA)"
  assayResult: 0.297

Fill blank: measured recombinant barcode read abundance (log10) of the sequence GGTCGACCTTGGGTTCTAACCTGTTGCCT (site GGTCGACCTAG) is ____. 0.898

Fill blank: measured recombinant barcode read abundance (log10) of the sequence GATCAGCCTTGGGTTCTAACCTGTTGCCT (site GATCAGCCTAG) is ____. 0.445

* * *

# runDescription: recombinant barcode read abundance after kanamycin selection (control-corrected) (log10(CPM+1)); higher = more efficient recombination; sequences stand for … in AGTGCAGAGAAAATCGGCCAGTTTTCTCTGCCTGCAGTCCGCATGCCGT…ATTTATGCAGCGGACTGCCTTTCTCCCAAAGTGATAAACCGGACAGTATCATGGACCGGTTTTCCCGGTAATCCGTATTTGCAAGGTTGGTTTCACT; site = the 11-nt target
Assign 1.0 to entries whose recombinant barcode read abundance (log10) meets or exceeds 0.2; assign 0.0 to the rest.

Could you please find out whether GCGCGACTTTGGGTTCTAACCTGTTGCTTAG [GCGCGACCTAA_LTGcore_TT_RTGcore_CT] (site GCGCGACCTAA) (LTG core: TT, RTG core: CT) has recombinant barcode read abundance (log10) that meets 0.2 or exceeds it? 0.0

Could you please find out whether CGAGCCCGGTGGGTTCTAACCTGTTGCTGCC [CGAGCCCCTCA_LTGcore_GG_RTGcore_GG] (site CGAGCCCCTCA) (LTG core: GG, RTG core: GG) has recombinant barcode read abundance (log10) that meets 0.2 or exceeds it? 0.0

Could you please find out whether TAGAGGGATTGGGTTCTAACCTGTTGCGGAT [TAGAGGGCTCC_LTGcore_AT_RTGcore_AT] (site TAGAGGGCTCC) (LTG core: AT, RTG core: AT) has recombinant barcode read abundance (log10) that meets 0.2 or exceeds it? 1.0

Could you please find out whether TGTATTCCGTGGGTTCTAACCTGTTGCCTAG [TGTATTCCTAG_LTGcore_CG_RTGcore_CT] (site TGTATTCCTAG) (LTG core: CG, RTG core: CT) has recombinant barcode read abundance (log10) that meets 0.2 or exceeds it? 1.0

Could you please find out whether GGGCGTGAGTGGGTTCTAACCTGTTGCCTAG [GGGCGTGCTAG_LTGcore_AG_RTGcore_CT] (site GGGCGTGCTAG) (LTG core: AG, RTG core: CT) has recombinant barcode read abundance (log10) that meets 0.2 or exceeds it? 0.0

Could you please find out whether ATGTCCCCTTGGGTTCTAACCTGTTGCTCGA [ATGTCCCCTGA_LTGcore_CT_RTGcore_TC] (site ATGTCCCCTGA) (LTG core: CT, RTG core: TC) has recombinant barcode read abundance (log10) that meets 0.2 or exceeds it? 0.0

Could you please find out whether TGTATTCCTTGGGTTCTAACCTGTTGCCTTG [TGTATTCCTAG_LTGcore_CT_RTGcore_CA] (site TGTATTCCTAG) (LTG core: CT, RTG core: CA) has recombinant barcode read abundance (log10) that meets 0.2 or exceeds it? 0.0

Could you please find out whether ATGCTTTCTTGGGTTCTAACCTGTTGCCTTA [ATGCTTTCTAG_LTGcore_CT_RTGcore_TA] (site ATGCTTTCTAG) (LTG core: CT, RTG core: TA) has recombinant barcode read abundance (log10) that meets 0.2 or exceeds it? 0.0

Could you please find out whether GAGTCCTCTTGGGTTCTAACCTGTTGCCTCC [GAGTCCTCTAG_LTGcore_CT_RTGcore_GG] (site GAGTCCTCTAG) (LTG core: CT, RTG core: GG) has recombinant barcode read abundance (log10) that meets 0.2 or exceeds it? 1.0

Could you please find out whether ACGGGACCCTGGGTTCTAACCTGTTGCAGGG [ACGGGACCTCT_LTGcore_CC_RTGcore_CC] (site ACGGGACCTCT) (LTG core: CC, RTG core: CC) has recombinant barcode read abundance (log10) that meets 0.2 or exceeds it? 1.0

Could you please find out whether CGCGCCCATTGGGTTCTAACCTGTTGCGGAT [CGCGCCCCTCC_LTGcore_AT_RTGcore_AT] (site CGCGCCCCTCC) (LTG core: AT, RTG core: AT) has recombinant barcode read abundance (log10) that meets 0.2 or exceeds it? 0.0

* * *

# runDescription: recombinant barcode read abundance after kanamycin selection (control-corrected) (log10(CPM+1)); higher = more efficient recombination; sequences stand for … in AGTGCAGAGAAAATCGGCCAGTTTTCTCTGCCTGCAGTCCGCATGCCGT…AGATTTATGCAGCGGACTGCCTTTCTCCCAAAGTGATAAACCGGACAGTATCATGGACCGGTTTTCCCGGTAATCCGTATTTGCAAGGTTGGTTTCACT; site = the 11-nt target
Reported values of recombinant barcode read abundance (log10) for individual entries

Field: example entries. Status: answers known.
- sequenceInput: "GCTTTGACTTGGGTTCTAACCTGTTGCCT (site GCTTGGACTAG)"
  assayResult: 0.0213
- sequenceInput: "GGTAAGTCTTGGGTTCTAACCTGTTGCCT (site GGTAAGTCTAG)"
  assayResult: 0.298
- sequenceInput: "GGCACTGCTTGGGTTCTAACCTGTTGCCT (site GGCACTGCTAG)"
  assayResult: 0.34
- sequenceInput: "AGTTTCACTTGGGTTCTAACCTGTTGCCT (site AGTTACACTAG)"
  assayResult: 0.11
- sequenceInput: "GTCGGGCCTTGGGTTCTAACCTGTTGCCT (site ATCGGGCCTAG)"
  assayResult: 0.0962
- sequenceInput: "CGGACGTCTTGGGTTCTAACCTGTTGCCT (site CGGACGTCTAG)"
  assayResult: 1.45
- sequenceInput: "CTTGGATCTTGGGTTCTAACCTGTTGCCT (site CTTGGAACTAG)"
  assayResult: 0.142
- sequenceInput: "CGAAGATCTTGGGTTCTAACCTGTTGCCT (site CCAAGATCTAG)"
  assayResult: 0
- sequenceInput: "CTAAGCTCTTGGGTTCTAACCTGTTGCTA (site CTAAGCTCTTA)"
  assayResult: 0.939
- sequenceInput: "CAAACAGCTTGGGTTCTAACCTGTTGCCT (site CAAACAACTAG)"
  assayResult: 0.0742

Fill blank: measured recombinant barcode read abundance (log10) of the sequence CACATCACTTGGGTTCTAACCTGTTGCCT (site CACAGCACTAG) is ____. 0.0683

Fill blank: measured recombinant barcode read abundance (log10) of the sequence GCCGGGGCTTGGGTTCTAACCTGTTGCCG (site GCCGGGGCTCG) is ____. 0.186

Fill blank: measured recombinant barcode read abundance (log10) of the sequence CCAGTTACTTGGGTTCTAACCTGTTGCCT (site CCAGTGACTAG) is ____. 0.195

Fill blank: measured recombinant barcode read abundance (log10) of the sequence CTCCCTACTTGGGTTCTAACCTGTTGCAG (site CTCCCAACTCG) is ____. 0.072

Fill blank: measured recombinant barcode read abundance (log10) of the sequence GAGTTTCCTTGGGTTCTAACCTGTTGCGT (site GAGTTGCCTAC) is ____. 0.0725

Fill blank: measured recombinant barcode read abundance (log10) of the sequence GAAGTCCCTTGGGTTCTAACCTGTTGCCT (site TAAGTCCCTAG) is ____. 1.22

Fill blank: measured recombinant barcode read abundance (log10) of the sequence GTGGTGGCTTGGGTTCTAACCTGTTGCCT (site GTGGTGGCTAG) is ____. 0.764

Fill blank: measured recombinant barcode read abundance (log10) of the sequence GTTTGAGCTTGGGTTCTAACCTGTTGCCT (site GTTCGAGCTAG) is ____. 0.261

Fill blank: measured recombinant barcode read abundance (log10) of the sequence GTCTTCTCTTGGGTTCTAACCTGTTGCTT (site GTCTACTCTCA) is ____. 0.0691

Fill blank: measured recombinant barcode read abundance (log10) of the sequence TAGTGTCCTTGGGTTCTAACCTGTTGCCT (site TAGTGTGCTAG) is ____. 0.521

Fill blank: measured recombinant barcode read abundance (log10) of the sequence GGATATACTTGGGTTCTAACCTGTTGCCT (site GGATATACTAG) is ____. 1.47

Origin of measurements: the supplement of paper PMC11208160
